Tested on: PXR:RXRa (NR concentration 270 nM, RXRa partner concentration 90 nM)
EXPERIMENT: PBM binding z-score (relative to random genomic background probes); higher = stronger binding; sequences stand for … in GC…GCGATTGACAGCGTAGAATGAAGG
Tick MET if PBM binding z-score is 0.5 or greater. Tick NOT MET if PBM binding z-score is less than 0.5.

Recorded results for 8 sequences are shown here.
CGAACTAGGTCAAGGACAGTGATTCTCCGCACGC: MET
AATCAAAGTTCATCTAGGTAACGTAAGATATGCT: MET
GCTCGGAGGACAAGGTCAGAACTTTGTCCGTAGA: MET
TAGCCTAGGTCATGGGACAGTATACCACGCGAAC: MET
GCTGCTAGCTCAACTGATGGTCAGCTAAAGCTCG: NOT MET
TGAGTGAGGTTAAAGATCAGGGAACGTGGCGTCG: MET
TAGCCTAGGTCAGATCGGGCCTGTATACGCTATA: NOT MET
AGAACGAGGGCAATGAGTTGATAGAACGGGTGGC: MET

Problem: Please check the record "GCTAGCAGGCCATTTGGGTGACTCAATGACGGGC" and state if its PBM binding z-score is at or above 0.5.
Result: NOT MET

Problem: Another sequence to look at: "TCTCGTAGGACACGAAGGTCAGAGCTTTCCAGAG"
Result: MET

Problem: Another sequence to look at: "ATCTCTAGGTAGGACTCAGTTCAGTGAAGAACGC"
Result: MET

Problem: Another sequence to look at: "TCATATAGGAAAACAGGTGAAAGTCCGTAAGTTA"
Result: MET

Problem: Another sequence to look at: "TCTAGCAGGCCAGAGGCTCACTCAAGAGGTACGG"
Result: NOT MET

Problem: Another sequence to look at: "TCAGACAGGTGAAGGTAACTGAGGTACGCAGTCG"
Result: NOT MET

Problem: Another sequence to look at: "GGTTGTAGATCAAGGTTAAGAAAGACTAAGCTAA"
Result: MET

Problem: Another sequence to look at: "CCTCGTAGGACAACAGGAGGTCAGAGCTGCCAGA"
Result: MET

Problem: Another sequence to look at: "CAGCCTAGGCCAGGGCCAGTATAGGAGGAACGTT"
Result: NOT MET

Problem: Another sequence to look at: "CCGACTGGGGCAGAAGGGTTACCATACCATCCGG"
Result: NOT MET

Problem: Another sequence to look at: "CGTTACGGGTCACTGACAGGTTATAGCATTTGGA"
Result: MET

Problem: Another sequence to look at: "ATCGAAAGGTAGACGAGGTGAGTATACACCGTTT"
Result: NOT MET

Problem: Another sequence to look at: "CGAACTAGGTCATTGACAGAACAGTGAATAGTAA"
Result: MET

Problem: Another sequence to look at: "CCTAGCAGGGCAGGGTCACTCAAGCATTTCGCTT"
Result: MET

Problem: Another sequence to look at: "ATCTCTAGGTAAGACTCAGTTCAGTCAAGAACGC"
Result: MET

Problem: Another sequence to look at: "ATAAGTAGGTTACATCCGGGTCATTCAGGCTATG"
Result: MET

Problem: Another sequence to look at: "TCAGACAGGTGAAGGTAACTTAGGTACGCAGTCG"
Result: MET

---

Tested on: PXR:RXRa (NR concentration 270 nM, RXRa partner concentration 90 nM)
EXPERIMENT: PBM binding z-score (relative to random genomic background probes); higher = stronger binding; sequences stand for … in GC…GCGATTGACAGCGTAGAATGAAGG
OUTCOME_MEASURE: PBM binding z-score
Give bare numbers.

Below are worked cases with known answers.
GGAGCGAGGGCATTCGAGTTGATAGCATGGCGAT: 3.55
TCTAGCAGGCCAGTGGGTCACTCAAGAGGTACGG: 0.324
GCGACTGGGGCATCAGCAGGTTATCATAACTTAA: 0.377
CGTCCAAGCTCATAGGAGGTCAGTGAAGACAGAT: 1.59
CCGACTGGTGCAAGGTTACCATAACGCACAGCCA: 0.357
TCGAGTAGGTTAAGGGCATTCAGAATGGCGTCGA: 0.999
ATCTCTAGGTAACAAGTTCTGTGAAAGAGAGGAC: 0.15
ATCTCTAGGTAAGACTCAGTGCAGTGAAGAACGC: 0.339

Would you mind listing PBM binding z-score for each of the following sequences?
1. AGAATGAGGTTACCATAGATCAGGGAAACGCTTG
2. ATCGAAAGGTCGATGGTGAGTATACCCACCCGAA
3. GGAACGAGGGCAATCGAGTTGATAGCATGGCGAT
4. CCAGACAGGTGAAAGGTATCTCAGTCTGGTACGC
5. AGAATGAGGTTATTAAGATCAGCGAATTGCGGTC
6. ATATGTAGGTGATCGGGTCATTCAGTTTGCGCAT
7. CAAGACAGGTGAGAAGGTAACTCAGCCTCGATTA

Result:
1. 0.897
2. 1.51
3. 3.29
4. 0.00827
5. 1
6. 3.27
7. 0.215

Would you mind listing PBM binding z-score for each of the following sequences?
1. CTCGAAAGGACGGTTGAGGTGAGTATACGGATAA
2. CCATACGGGTCAAGGTTATAGCACGGGTGGTACG
3. CAAACTAGGTCACGAAAGGTCTAAGTCGAATGAC
4. CCGACTTGGGCATAAGGTTACCATAAGCCAGCCC
5. TCTAGTTGGTCACGGAGGTCACACTCGACGGGTA
6. TTACCAAGGTGAGCTGATGTCGTTGATCCAACTC
7. CCTACTGGGCCAAGGTCATGGATCAGTCAAAGCA

Result:
1: 0.0192; 2: 3.06; 3: 3.68; 4: 0.211; 5: 4.31; 6: 0.24; 7: 3.26

Would you mind listing PBM binding z-score for each of the following sequences?
1. CCTATCAGTTGACCATAAGGGCAACCGAAGCTCG
2. ACTATTAGTTGACTTAGGGCAACAGATACGACGC
3. ACTAGCAGGCCGAGTTTGGGTCACTCAAACAAAG
4. GGAACGAGGGCATTCAAGTTGATAGCATGGCGAT

Result:
0.754
0.159
0.617
2.92

---

System: LXRb homodimer (NR concentration 270 nM)
EXPERIMENT: PBM binding z-score (relative to random genomic background probes); higher = stronger binding; sequences stand for … in GC…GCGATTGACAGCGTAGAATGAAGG
OUTCOME_MEASURE: PBM binding z-score
Give bare numbers.

TCATATAGGTACACAGGTGAAAGTCCGTAAGTTA: 0.0342
GCTGCTAGGTCAACCGATGGTCAGCTAAAGCTCG: -0.103
TCATATAGGTAATACAGGTGAGAGTCGGCATCTA: 0.184
ACTAGTTGGTCAGCTGAGGTCACAGACAATTCGG: 0.184
CAAACTAGGTCAAGGACAGTGAATCTCCGCACGC: 0.431

Problem: Item under review: "AGAATGAGGTTATTAAGAACAGGGAATTGCGGTC" . Reported PBM binding z-score?
Result: 0.0569

---

Give PBM binding z-score for every item shown.
Tested on: RARa:RXR (NR concentration 270 nM, RXRa partner concentration 90 nM)
EXPERIMENT: PBM binding z-score (relative to random genomic background probes); higher = stronger binding; sequences stand for … in GC…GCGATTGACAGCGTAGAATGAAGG
Numbers only.

TAACCTAGGTCATTCAGGGGCCAGTATAGAAAGC: 4.06
GATACAGGGTCAGCTAGCGGCCAGAGTATGGAAA: 3.79
TCTCGGAGGACACGAAAGGTCAGATCTCGACATC: 3.78
AGTCAAAGTTCACTATGTAACGTAAGATTCAGCT: 2.7

Would you mind listing PBM binding z-score for each of the following sequences?
1. CGGCCAAGGTCATAGGAGGTCAGTGAAGACAGAT
2. TCGTGTAGGTTACCAATGGGGCATTCAGCTTTCT

Result:
1: 5.88; 2: 0.543

Would you mind listing PBM binding z-score for each of the following sequences?
1. ACTATTAGTTGAAACGAGGGCAACCGATAGGTTG
2. CGTCCAAGGTCAAGGTCGGTGAAAGAGACTCGAA
3. ATTACAGGGTCATCGTAGGCCAGAGTACGCACAG
4. CAAACTAGGTCACCGGAAGGTCAAAGACCGCATG
5. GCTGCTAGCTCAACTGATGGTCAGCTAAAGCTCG
6. AGTCAAAGTTCACTAGGTAACGTAGGATTCAGCT

Result:
1.38
5.05
5.52
7.13
-1.22
2.82
